# test.target: Inward rectifier potassium channel 2 (Mus musculus)
# measurement.notes: off-target Kir2.1 potassium flux block – cell-based, HEK293, thallium flux, selectivity assay for KCNK9 modulator project, confirmation (AID 492993)
# run.conditions: Kir2.1 cells, FluxOR thallium flux fluorescence, at 10 µM
Screen size: about 4,900 compounds; about 200 (4.1%) were called active.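 The calls were made as follows: active = thallium signal drop more than 5 SD beyond the mean of the no-compound control wells, seen in both duplicate plates; inactive = the rest.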 This excerpt belongs to a sample that is enriched for actives.
Output constraint: value belongs to active, inactive

CC(C)(C)c1ccc(OC(=O)N2CCCCC2)cc1	inactive
CCOC(=O)C1SC2(C(F)(F)C(F)F)CC1(O)c1c(c(OC)c3occc3c1OC)O2 (stereo not given)	inactive
CC(C)(C)c1ccc(CN2C(=O)CN=C(c3ccccc3)c3ccccc32)cc1	inactive
CCCCCCCCCCCCn1ccc(=N)cc1	active

Now take the following molecule into account.
IN: Hi, do you know how CCCCCCN=C(CC)c1c(O)n(CCCC)c(=O)[nH]c1=O came out in this test?
OUT: inactive
